This collection of values is drawn from patent US20090311283A1.

Tested Target: HLA-A*3101 (human)
Test Protocol: competition with 125I-labelled probe peptide for purified HLA-A*3101, gel filtration; ratio to standard peptide 941.12
// reported binding affinity ratio (IC50 of standard peptide / IC50 of test peptide) per item
Measured Metric: binding affinity ratio (IC50 of standard peptide / IC50 of test peptide)

1. RLKLIMPAR (modifications not checked) [HBV POL 106 peptide …]	3.1
2. NSVVLSRK (modifications not checked) [HBV POL 738 peptide NSVVLSRK]	-0.0009
3. PLTVNEKR (modifications not checked) [HBV POL 98 peptide PLTVNEKR]	-0.0009
4. PLSYQHFRK (modifications not checked) [HBV POL 2 peptide …]	0.0006
